Overview of recorded % activity vs. DARPin # 41, BT474 cell proliferation for various binders
- measured.on: Human HER2 expressed on tumour cells (human, UniProt P04626 23-1255)
- assay.procedure: cell-based or functional assay
Please reply with the bare figure in % and do not write the unit itself.

Worked set:
binder="DARPin #67 (designed binder) MRGSHHHHHHGSDLGAKLLSDLGVKLLWAAARGQDDEVRILLAAGADVNAKDFQGITPLHIAAQSGHLEIVEVLLKAGADVNAKDVTGDTPLHLAAQHGHLVIVEVLLKAGADVNAQDERGWTPADLAADWGHEDIAEVLQKAAGGGGSDLGKKLLEAARAGQDDEVRILMANGADVNAKDEYGLTPLYLATAHGHLEIVEVLLKNGADVNAVDAIGFTPLHLAAFIGHLEIAEVLLKHGADVNAQDKFGKTAFDISIGNGNEDLAEILQKAA" reported_value=100
binder="DARPin #33 (designed binder) MRGSHHHHHHGSDLGIKLLFAASRGQDDEVRILLAAGADVNAKDFEGITPLHAAARSGHLEIVEVLLKAGADVNAKDVEGWTPLHYAASYGHLEIVEVLLKAGADVNAQDNHGATPADLAAQWGHEDIAEVLQKLGGGGSGGGGSRSDLGAKLLVAATSGQDDEVRILLAAGADVNAKDRIGFTPLHRAAFVGHLEIVEVLLKAGADVNAQDDFGHTPADLAASLGHEDIAEVLQKLN" reported_value=65.3

IN: Query: % activity vs. DARPin # 41, BT474 cell proliferation; subject: DARPin #42 (designed binder) MRGSHHHHHHGSDLGAKLLSDLGVKLLWAAARGQDDEVRILLAAGADVNAKDFQGITPLHIAAQSGHLEIVEVLLKAGADVNAKDVTGDTPLHLAAQHGHLVIVEVLLKAGADVNAQDERGWTPADLAADWGHEDIAEVLQKLGGGGSGGGGSRSDLGKKLLEAARAGQDDEVRILMANGADVNATDIHGHTPLHLAAAMGHLEIVEVLLKNGADVNANDWRGFTPLHLAALNGHLEIVEVLLKNGADVNATDTAGNTPLHLAAWFGHLEIVEVLLKNGADVNAQDKFGKTAFDISIDNGNEDLAEILQKLN
OUT: 100
